# Test system: SF-539
# Measurement Notes: NCI tumour cell line growth inhibition, 48 h
Calls of active or inactive are those of the source. No stated cut-off is given here; in the data, active = GI50 up to about 1.1 µM and inactive = higher.
Property Label: GI50

Example entries and their recorded answers appear below.
Compound	Property Label	Result
CN(C)P(=O)(Oc1occc1C(O)Cc1ccccc1)N(C)C (configuration not stated)	GI50	> 100 µM (inactive)
CCN(CC)C1CC(n2cc(C)c(=O)[nH]c2=O)OC1CO (configuration not stated)	GI50	> 100 µM (inactive)
[O-][n+]1onc(-c2ccccc2)c1CN1CCOCC1	GI50	> 100 µM (inactive)

Request: State the recorded GI50 for this entry: "c1ccc2c(c1)nc1n2CCNC1"
Result: > 100 µM (inactive)

Request: State the recorded GI50 for this entry: "Cc1c(C)c(C)c(CC2(C)CSC2)c(CC2(C)CSC2)c1C"
Result: > 100 µM (inactive)

Request: State the recorded GI50 for this entry: CC(=O)OCC1OC(OCc2ccccc2)C(Br)C(OC(C)=O)C1OC(C)=O (configuration not stated)
Result: > 100 µM (inactive)

Request: State the recorded GI50 for this entry: "O=C(O)c1cc(-c2ccc3c(O)ccc(O)c3c2)ccc1O"
Result: 16 µM (inactive)

Request: State the recorded GI50 for this entry: Cc1coc2c1CC1(C)C(CCC(O)C1C)C2 (configuration not stated)
Result: > 100 µM (inactive)

Request: State the recorded GI50 for this entry: "COc1c(C)c(O)c2c(=O)cc(-c3ccccc3)oc2c1C"
Result: > 100 µM (inactive)

Request: State the recorded GI50 for this entry: "Nc1cccc(/C=C/C(=O)N2CCN(CCOC(c3ccccc3)c3ccccc3)CC2)c1"
Result: 17.3 µM (inactive)

Request: State the recorded GI50 for this entry: O=C(Nc1ccc(Cl)cc1Cl)C(=O)C(C(=O)c1ccc2ccccc2c1)C1OC(=O)c2ccccc21 (configuration not stated)
Result: 2.68 µM (inactive)

Request: State the recorded GI50 for this entry: "Cn1cnc2c(NCc3ccccc3)nc(NCCO)nc21"
Result: 42.2 µM (inactive)

###

# Tested on: OVCAR-8
# Measurement Notes: NCI tumour cell line growth inhibition, 48 h
The source made the active and inactive calls. No stated cut-off is given here; in the data, active = GI50 up to about 1.1 µM and inactive = higher.
Property Label: GI50

Example entries and their recorded answers appear below.
Compound	GI50
COc1ccc(C(N)=O)cc1/N=N/N(C)C	78.3 µM (inactive)
Cc1ccc(Nc2nc3ccccc3c(=O)n2N)cc1	> 100 µM (inactive)
Fc1nc(Sc2ncnc3nc[nH]c23)nc(-c2c3ccccc3c3sc4ccccc4n23)n1	> 100 µM (inactive)
CC(=O)OCC1OC(OCc2ccccc2)C(Br)C(OC(C)=O)C1OC(C)=O (stereo not given)	> 100 µM (inactive)

# ---- query compound ----
Request: State the recorded GI50 for this entry: "CN(/N=C/c1cccc2cccnc12)c1c([N+](=O)[O-])cc([N+](=O)[O-])cc1[N+](=O)[O-]"
Result: > 100 µM (inactive)

###

# Test system: M14
# Measurement Notes: NCI tumour cell line growth inhibition, 48 h
Calls of active or inactive are those of the source. Cut-off read from the data, not from the text of the source: active = GI50 up to about 1.1 µM and inactive = higher.
Hi there, use one of these labels in your reply, thanks! TRUE = active, FALSE = inactive

Request: In this assay, the call recorded for "CC(=O)O[C@H]1C#C/C=C\C#CC[C@@H]2C(=O)N[C@@H]12" was what?
Result: FALSE

Request: In this assay, the call recorded for "COC(=O)C(C)(C)/N=C/N(C)C" was what?
Result: FALSE

Request: In this assay, the call recorded for "O=C1/C(=C/c2cccc3ccccc23)CCc2ccc([N+](=O)[O-])cc21" was what?
Result: FALSE

Request: In this assay, the call recorded for COC1CC(N)C(O)C(C)O1 (stereo not drawn) was what?
Result: FALSE

Request: In this assay, the call recorded for CC1(C)C(c2ccccc2)C12CCC1(C2=O)C(c2ccccc2)C1(C)C (stereo not drawn) was what?
Result: FALSE

Request: In this assay, the call recorded for O=C1NC(O)CCN1C1CC(O)C(CO)O1 (stereo not drawn) was what?
Result: FALSE

Request: In this assay, the call recorded for "C=CCSC1=N/C(=C\c2ccc(Cl)cc2)C(=O)N1CC=C" was what?
Result: FALSE
